subject-of-test: Nonstructural protein 5A (Hepatitis C virus) (UniProt Q5L478)
Sequence (Q5L478 as listed by the source): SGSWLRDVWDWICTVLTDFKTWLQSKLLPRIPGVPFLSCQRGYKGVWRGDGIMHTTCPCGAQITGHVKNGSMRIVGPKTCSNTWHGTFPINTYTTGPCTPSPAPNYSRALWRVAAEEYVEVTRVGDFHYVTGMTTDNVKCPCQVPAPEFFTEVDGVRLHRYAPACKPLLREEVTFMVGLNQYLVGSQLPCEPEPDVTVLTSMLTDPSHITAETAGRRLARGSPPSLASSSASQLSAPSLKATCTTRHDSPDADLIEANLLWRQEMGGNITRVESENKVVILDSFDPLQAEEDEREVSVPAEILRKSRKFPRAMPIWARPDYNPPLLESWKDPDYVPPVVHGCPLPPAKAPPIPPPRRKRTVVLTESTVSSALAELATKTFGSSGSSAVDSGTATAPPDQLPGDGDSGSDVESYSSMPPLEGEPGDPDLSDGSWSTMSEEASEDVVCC
assay-method-text: Inhibition of HCV GT1b NS5A assessed as suppression of replicon RNA level by real-time PCR analysis
experimental-context: Hepatitis C virus subtype 1b
Output fulfilled for records whose EC90 is lower than 3 pM, not fulfilled for records at or above 3 pM.

# compound, class
records = [
    ("COC(=O)N[C@H](C(=O)N1CCC[C@H]1c1ncc(-c2ccc3c(c2)c(F)c2n3C(c3ccccc3)Oc3cc(-c4cnc([C@@H]5C[C@@H](F)CN5C(=O)[C@@H](NC(=O)OC)C(C)C)[nH]4)ccc3-2)[nH]1)C(C)C (stereo partly specified)", "fulfilled"),
    ("COC(=O)N[C@H](C(=O)N1CCC[C@H]1c1ncc(-c2ccc3c(c2)OCn2c-3cc3cc(-c4cnc([C@@H]5CCCN5C(=O)[C@@H](NC(=O)OC)C(C)C)[nH]4)c(F)cc32)[nH]1)C(C)C", "not fulfilled"),
    ("COC(=O)N[C@H](C(=O)N1CCC[C@H]1c1ncc(-c2ccc3c(c2)cc2n3C(c3ccc(OC(F)(F)F)cc3)Oc3cc(-c4cnc([C@@H]5C[C@@H](F)CN5C(=O)[C@@H](NC(=O)OC)C(C)C)[nH]4)cc(F)c3-2)[nH]1)C(C)C (stereo partly specified)", "not fulfilled"),
]

In the record for `COC(=O)N[C@H](C(=O)N1CCC[C@H]1c1ncc(-c2ccc3c(c2)OCn2c-3c(C3CC3)c3cc(-c4cnc([C@@H]5CCCN5C(=O)[C@@H](NC(=O)OC)C(C)C)[nH]4)ccc32)[nH]1)C(C)C` , is EC90 less than 3 pM?
not fulfilled
